experimental_target: T1, apical domain of human CD71 (human, UniProt P02786 189-383, limits assumed)
T1 construct: domain: apical domain; Screen 4 panned on human apical domains, the ELISA text says only 'apical domain'
T1 sequence (P02786 189-383 limits assumed): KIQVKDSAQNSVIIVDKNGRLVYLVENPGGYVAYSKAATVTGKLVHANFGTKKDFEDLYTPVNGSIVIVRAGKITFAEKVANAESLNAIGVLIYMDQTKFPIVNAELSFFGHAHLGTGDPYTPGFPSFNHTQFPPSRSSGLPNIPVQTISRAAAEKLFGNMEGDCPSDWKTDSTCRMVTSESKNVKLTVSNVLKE
procedure_details: primary ELISA, RLU over HSA
Attribute: Apical domain:HSA
quantity_kind: Apical domain:HSA

1. CD71-binding FN3 domain of SEQ ID NO: 497 (designed binder) MLPAPKNLVVSRVTEDSARLSWTAPDAAFDSFFIGYLEPQPPGEAITLLVPGSERSYDLTGLKPGTEYNVTIQGVKGGFPSKPLYAYFTT; 358
2. CD71-binding FN3 domain of SEQ ID NO: 502 (designed binder) MLPAPKNLVVSRVTEDSARLSWTAPDAAFDSFFIGYLEPQPPGEAIGLHVPGSERSYDLTGLKPGTEYNVTIQGVKGGFPSIPLEAKFTT; 222
3. CD71-binding FN3 domain of SEQ ID NO: 463 (designed binder) MLPAPKNLVVSRVTEDSARLSWTAPDAAFDSFLILYIEQDHRGEAIVLTVPGSERSYDLTGLKPGTEYWVHITGVKGGYYSAPLSAIFTT; 89
4. CD71-binding FN3 domain of SEQ ID NO: 527 (designed binder) MLPAPKNLVVSRVTEDSARLSWTAPDAAFDSFFIGYLEPQPPGEAIHLYVPGSERSYDLTGLKPGTEYNVTIQGVKGGFPSEPLIANFTT; 15
5. CD71-binding FN3 domain of SEQ ID NO: 498 (designed binder) MLPAPKNLVVSRVTEDSARLSWTAPDAAFDSFFIGYLEPQPPGEAIILWVPGSERSYDLTGLKPGTEYNVTIQGVKGGFPSIPLIAVFTT; 112
6. CD71-binding FN3 domain of SEQ ID NO: 518 (designed binder) MLPAPKNLVVSRVTEDSARLSWTAPDAAFDSFFIGYLEPQPPGEAISLWVPGSERSYDLTGLKPGTEYNVTIQGVKGGFPSDPLGAHFTT; 271
7. CD71-binding FN3 domain of SEQ ID NO: 458 (designed binder) MLPAPKNLVVSRVTEDSARLSWTAPDAAFDSFLDLLPSNWDIAGEAIVLTVPGSERSYDLTGLKPGTEYHVNILGVKGGKESLPLVANFTT; 69
8. CD71-binding FN3 domain of SEQ ID NO: 493 (designed binder) MLPAPKNLVVSRVTEDSARLSWTAPDAAFDSFFIGYLEPQPPGEAILLAVPGSERSYDLTGLKPGTEYNVTIQGVKGGFPSLPLVAHFTT; 172
9. CD71-binding FN3 domain of SEQ ID NO: 476 (designed binder) MLPAPKNLVVSRVTEDSARLSWTAPDAAFDSFFIGYLEPQPPGEAIHLQVPGSERSYDLTGLKPGTEYNVTIQGVKGGFPSIPLIAVFTT; 215
10. CD71-binding FN3 domain of SEQ ID NO: 449 (designed binder) MLPAPKNLVVSRVTEDSARLSWTAPDAAFDSFYIAYQELSLWGEAIVLTVPGSERSYDLTGLKPGTEYNVTIQGVKGGFPSLPLAAQFTT; 66
11. CD71-binding FN3 domain of SEQ ID NO: 531 (designed binder) MLPAPKNLVVSRVTEDSARLSWTAPDAAFDSFEIGYFEYSYYGEAIVLTVPGSERSYDLTGLKPGTEYRVYIGGVKGGGWSRPLSAIFTT; 586
12. CD71-binding FN3 domain of SEQ ID NO: 522 (designed binder) MLPAPKNLVVSRVTEDSARLSWTAPDAAFDSFFIGYLEPQPPGEAITLYVPGSERSYDLNGLKPGTEYNVTIQGVKGGFPSMPLSAIFTT; 283
13. CD71-binding FN3 domain of SEQ ID NO: 530 (designed binder) MLPAPKNLVVSRVTEDSARLSWTAPDAAFDSFFIGYLEPQPPGEAIDLLVPGSERSYDLTGLKPGTEYNVTIQGVKGGFPSEPLFAHFTT; 281
14. CD71-binding FN3 domain of SEQ ID NO: 464 (designed binder) MLPAPKNLVVSRVTEDSARLSWTAPDAAFDSFFIGYLEPQPPGEAIQLFVPGSERSYDLTGLKPGTEYNVTIQGVKGGFPSTPLVASFTT; 160
15. CD71-binding FN3 domain of SEQ ID NO: 477 (designed binder) MLPAPKNLVVSRVTEDSARLSWTAPDAAFDSFEIAYFETCRTGEAIVLTVPGSERSYDLTGLKPGTEYGVSIYGVKGGAHSGPLSAIFTT; 370
16. CD71-binding FN3 domain of SEQ ID NO: 459 (designed binder) MLPAPKNLVVSRVTEDSARLSWTAPDAAFDSFFIRYLEPQPPGEAIHLSVPGSERSYDLTGLKPGTEYNVTIQGVKGGFPSMPLYAIFTT; 199
17. CD71-binding FN3 domain of SEQ ID NO: 545 (designed binder) MLPAPKNLVVSRVTEDSARLSWTAPDAAFDSFFIGYLEPQPPGEAISLVVPGSERSYDLTGLKPGTEYNVTIQGVKGGFPSNPLIATFTT; 327
18. CD71-binding FN3 domain of SEQ ID NO: 507 (designed binder) MLPAPKNLVVSRVTEDSARLSWTAPDAAFDSFFIGYLEPQPPGEAIHLLVPGSERSYDLTGLKPGTEYNVTIQGVKGGFPSMPLSAIFTT; 245
